Biological target: UniProt:P78348
Sequence (P78348 whole entry): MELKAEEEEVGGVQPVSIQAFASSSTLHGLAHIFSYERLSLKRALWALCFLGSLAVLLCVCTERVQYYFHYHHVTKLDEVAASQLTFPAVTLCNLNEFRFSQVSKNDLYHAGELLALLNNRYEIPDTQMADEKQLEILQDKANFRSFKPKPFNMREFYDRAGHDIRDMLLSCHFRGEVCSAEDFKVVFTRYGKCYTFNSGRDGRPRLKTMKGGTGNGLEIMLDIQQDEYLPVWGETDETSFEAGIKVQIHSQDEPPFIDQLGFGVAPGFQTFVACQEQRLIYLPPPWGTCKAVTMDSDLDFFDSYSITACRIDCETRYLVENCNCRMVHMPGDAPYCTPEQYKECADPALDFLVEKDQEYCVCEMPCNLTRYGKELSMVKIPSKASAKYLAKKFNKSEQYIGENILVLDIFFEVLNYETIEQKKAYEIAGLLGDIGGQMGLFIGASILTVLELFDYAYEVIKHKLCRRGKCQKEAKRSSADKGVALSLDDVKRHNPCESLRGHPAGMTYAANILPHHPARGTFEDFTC
Test: Two-electrode voltage clamp in Xenopus laevis oocytes expressing hASIC1a (OpusExpress)
Assay type: cell-based
Parameters: expressed in transfected cells; host or cells: Xenopus laevis oocytes, nuclear microinjection of cDNA (e.g. in pCDNA3)
Settings: OpusExpress (OX), Tables A-F; h1a printed in some cells only
REPORTED ENDPOINT: Biological Data (IC50 uM) h1a (OX)

As a guide, the following entries are already answered.
>>> result("COc1ccc(-c2cc(C(=O)N3CCN(CCc4ccccc4)CC3)c3ccccc3n2)cc1OC")
"Not Active (OX)"
>>> result("Cc1ccc(-c2nc(NC3CCN(Cc4ccccc4)CC3)c3ccc(Cl)cc3n2)cc1")
"Not Active (OX)"
>>> result("COc1ccc(N2CCN(C(=O)c3cc(-c4ccc(OC)c(OC)c4)nc4ccccc34)CC2)cc1")
"Not Active (OX, PC)"
>>> result("COc1ccc(-c2cc(C(=O)N3CCN(Cc4ccc5c(c4)OCO5)CC3)c3cc(Cl)ccc3n2)cc1")
"Not Active (OX, PC)"
>>> result("Cc1ccc(-c2nc(OCCCCCl)c3cc([N+](=O)[O-])ccc3n2)cc1")
"Not Active (OX)"

`Clc1ccc2c(OC3CCN(Cc4ccccc4)CC3)ccnc2c1` yielded Biological Data (IC50 uM) h1a (OX) of Not Active (OX)

`Cc1ccc(-c2nc(Nc3ccccc3)c3ccccc3n2)cc1` yielded Biological Data (IC50 uM) h1a (OX) of Not Active (OX)

`Cc1ccc(-c2nc(N(C)c3ccc(C(=O)O)cc3)c3ccccc3n2)cc1` yielded Biological Data (IC50 uM) h1a (OX) of Not Active (OX)
